# testedSystem: human CD33 P174A (human, UniProt P20138 18-364)
# Sequence (P20138 18-364 P174A limits assumed): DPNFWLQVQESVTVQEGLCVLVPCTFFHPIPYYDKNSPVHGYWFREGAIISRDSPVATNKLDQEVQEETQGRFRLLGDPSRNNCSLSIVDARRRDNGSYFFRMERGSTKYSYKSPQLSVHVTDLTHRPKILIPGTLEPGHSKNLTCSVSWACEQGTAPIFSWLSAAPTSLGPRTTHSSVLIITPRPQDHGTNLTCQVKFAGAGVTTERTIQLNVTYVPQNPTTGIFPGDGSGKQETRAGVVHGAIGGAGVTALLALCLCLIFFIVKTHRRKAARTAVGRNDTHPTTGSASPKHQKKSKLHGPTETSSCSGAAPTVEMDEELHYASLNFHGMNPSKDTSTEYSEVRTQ
# assayDetails: alanine scan, flow cytometry, HEK293-T;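 also: antibody binding to each alanine-substituted CD33 mutant expressed transiently in HEK293-T, read as fluorescence minus background, mean of duplicates, relative to wild-type CD33 set as 100%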
I'd appreciate it if you could supply Mean % WT Binding values for the items below.
A number alone suffices; assume %.

What measured Mean % WT Binding goes with Refmab #4 (antibody, V domains shown, In the alanine scan antibodies were used as IgG or Fab) VH: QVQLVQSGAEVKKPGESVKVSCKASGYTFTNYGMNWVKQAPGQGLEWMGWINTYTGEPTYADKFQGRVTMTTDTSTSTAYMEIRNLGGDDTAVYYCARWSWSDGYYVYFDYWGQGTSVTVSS VL: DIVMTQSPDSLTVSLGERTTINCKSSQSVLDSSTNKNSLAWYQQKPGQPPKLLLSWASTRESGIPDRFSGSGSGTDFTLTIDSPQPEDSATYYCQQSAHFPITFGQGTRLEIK ? 118

What do we get for Refmab #3 (antibody, V domains shown, In the alanine scan antibodies were used as IgG or Fab) VH: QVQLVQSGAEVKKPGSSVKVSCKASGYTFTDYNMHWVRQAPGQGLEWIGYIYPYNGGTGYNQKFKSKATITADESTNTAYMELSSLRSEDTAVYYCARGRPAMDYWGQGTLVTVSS VL: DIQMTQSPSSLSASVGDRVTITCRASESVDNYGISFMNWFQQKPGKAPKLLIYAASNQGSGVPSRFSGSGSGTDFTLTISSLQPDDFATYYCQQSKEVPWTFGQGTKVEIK ? 110

What do we get for Refmab #2 (antibody, V domains shown, In the alanine scan antibodies were used as IgG or Fab) VH: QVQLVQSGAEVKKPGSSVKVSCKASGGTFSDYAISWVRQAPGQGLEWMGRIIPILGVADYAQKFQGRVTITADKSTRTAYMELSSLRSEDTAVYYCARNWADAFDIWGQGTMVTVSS VL: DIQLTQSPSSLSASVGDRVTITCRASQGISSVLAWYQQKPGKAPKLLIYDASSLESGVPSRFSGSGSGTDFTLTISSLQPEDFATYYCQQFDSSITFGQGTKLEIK ? 117
